molecular target: PE-labeled human PD-L1-Ig binding to Jurkat cell line over-expressing human PD-1 (Jurkat-PD-1) (Homo sapiens, UniProt Q15116); construct: expressed in transfected cells; host or cells: Jurkat; assay: Jurkat-PD-1 Cell Binding High-Content Screening Assay (CBA): Method 1; conditions: Jurkat-hPD-1 cells, PE-labeled PD-L1-Ig 20 nM final; read-out: Jurkat HPDL1 PD1 IC50 (uM) (Method 1)
Sequence (Q15116 25-288): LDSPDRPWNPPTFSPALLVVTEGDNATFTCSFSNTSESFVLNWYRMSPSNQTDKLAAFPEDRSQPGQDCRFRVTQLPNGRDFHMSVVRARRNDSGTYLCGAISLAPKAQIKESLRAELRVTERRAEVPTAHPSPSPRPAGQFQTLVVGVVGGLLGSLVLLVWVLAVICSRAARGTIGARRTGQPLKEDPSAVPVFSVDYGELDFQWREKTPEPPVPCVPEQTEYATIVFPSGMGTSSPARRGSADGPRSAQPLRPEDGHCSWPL
Bridge positions count the residues as written; N and C are the ends. Square brackets hold non-standard residues; d marks the D form. Peptide text beside a SMILES is read from it. Bip = N[C@@H](Cc1ccc(-c2ccccc2)cc1)C(=O)O; Phe(3-Me) = Cc1cccc(C[C@H](N)C(=O)O)c1; dOrn = NCCC[C@@H](N)C(=O)O; Pip = O=C(O)[C@@H]1CCCCN1; NMeA = CN[C@@H](C)C(=O)O; Dab = NCC[C@H](N)C(=O)O; Dap = NC[C@H](N)C(=O)O
value_kind: IC50 (µM)
The reply should be a number in µM, with the unit left off.

Cc1cccc(C[C@@H]2NC(=O)[C@H](CC(=O)O)NC(=O)[C@H](Cc3ccc(O)cc3)NC(=O)[C@H](CC(N)=O)NC(=O)CSC[C@@H](C(N)=O)NC(=O)[C@H]([C@@H](C)O)NC(=O)[C@H](C(C)C)NC(=O)[C@H](CC(C)C)NC(=O)[C@H](CCN)NC(=O)[C@@H](CC(C)C)NC(=O)[C@H](C)N(C)C(=O)[C@H](C(C)C)NC(=O)[C@H](Cc3ccc(-c4ccccc4)cc3)NC(=O)[C@H](C(C)C)NC2=O)c1 [Compound 1637] ({CH2CO}-NYD[Phe(3-Me)]V[Bip]V[NMeA][dL][Dab]LVTC-NH2; thioether N-14) :: 0.15
CC(C)C[C@@H]1NC(=O)[C@H](Cc2c[nH]c3ccccc23)NC(=O)[C@H](CC(=O)O)NC(=O)[C@H](Cc2ccc(O)cc2)NC(=O)[C@H](Cc2ccccc2)NC(=O)CSC[C@@H](C(=O)N[C@@H](C)C(N)=O)NC(=O)[C@H](CO)NC(=O)[C@H](C(C)C)NC(=O)[C@H](CC(C)C)NC(=O)[C@H](CC(N)=O)NC(=O)[C@@H](CCCN)NC(=O)[C@H](C)N(C)C(=O)[C@H](C(C)C)NC(=O)[C@H](Cc2ccc(-c3ccccc3)cc2)NC1=O [Compound 1802] ({CH2CO}-FYDWL[Bip]V[NMeA][dOrn]NLVSCA-NH2; thioether N-14) :: 0.19
Cc1cccc(C[C@@H]2NC(=O)[C@H](CC(=O)O)NC(=O)[C@H](Cc3ccc(O)cc3)NC(=O)[C@H](CN)NC(=O)CSC[C@@H](C(=O)N[C@@H](C)C(N)=O)NC(=O)[C@H]([C@@H](C)O)NC(=O)[C@H](C(C)C)NC(=O)[C@H](CC(C)C)NC(=O)[C@H](CCN)NC(=O)[C@@H](CC(C)C)NC(=O)[C@H](C)N(C)C(=O)[C@H](C(C)C)NC(=O)[C@H](Cc3ccc(-c4ccccc4)cc3)NC(=O)[C@H](C(C)C)NC2=O)c1 [Compound 1428] ({CH2CO}-[Dap]YD[Phe(3-Me)]V[Bip]V[NMeA][dL][Dab]LVTCA-NH2; thioether N-14) :: 0.04

Input line: IC50 lookup needed for CC(C)C[C@@H]1NC(=O)[C@H](CCN)NC(=O)[C@@H](CC(C)C)NC(=O)[C@@H]2CCCCN2C(=O)[C@H](C(C)C)NC(=O)[C@H](Cc2ccc(-c3ccccc3)cc2)NC(=O)[C@H](C(C)C)NC(=O)[C@H](Cc2c[nH]c3ccccc23)NC(=O)[C@H](CC(=O)O)NC(=O)[C@H](Cc2ccc(O)cc2)NC(=O)[C@H](CC(N)=O)NC(=O)CSC[C@@H](C(=O)N[C@@H](C)C(N)=O)NC(=O)[C@H]([C@@H](C)O)NC(=O)[C@H](C(C)C)NC1=O [Compound 1298] ({CH2CO}-NYDWV[Bip]V[Pip][dL][Dab]LVTCA-NH2; thioether N-14) , thanks.
Output line: 0.03
